// data source = patent US10124004B2

Hi there, I'd appreciate the recorded IC50 for every entry that follows.
- Test target: CDK4/cyclin D3 (Homo sapiens)
- Construct: purchased Carna Biosciences, Inc. QS S Assist CDK4/Cyclin D3_FP Kit
- Sequence (P11802 whole entry): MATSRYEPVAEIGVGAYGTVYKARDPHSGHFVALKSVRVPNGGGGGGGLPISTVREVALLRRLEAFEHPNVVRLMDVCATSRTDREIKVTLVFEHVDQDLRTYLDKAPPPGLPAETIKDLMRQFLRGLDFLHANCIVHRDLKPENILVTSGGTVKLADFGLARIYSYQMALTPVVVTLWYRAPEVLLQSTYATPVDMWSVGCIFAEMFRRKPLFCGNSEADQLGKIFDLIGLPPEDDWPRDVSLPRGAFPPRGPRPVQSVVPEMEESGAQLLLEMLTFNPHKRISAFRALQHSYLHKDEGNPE
- Sequence (P30281 whole entry partner): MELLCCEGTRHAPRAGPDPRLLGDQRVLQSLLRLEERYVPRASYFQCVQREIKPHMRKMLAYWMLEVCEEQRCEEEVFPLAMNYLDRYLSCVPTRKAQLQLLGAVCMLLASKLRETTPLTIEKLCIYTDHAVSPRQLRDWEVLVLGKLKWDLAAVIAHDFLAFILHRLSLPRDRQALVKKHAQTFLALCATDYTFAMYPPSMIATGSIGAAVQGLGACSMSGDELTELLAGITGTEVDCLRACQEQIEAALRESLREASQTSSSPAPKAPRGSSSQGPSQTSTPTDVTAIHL
- Assay details: Human CDK4/cyclin D3 inhibitory activity (QS S Assist CDK4/Cyclin D3_FP Kit, IMAP fluorescence polarization)
- Type: biochemical
- Condition set: 50% inhibitory concentration against CDK4/cyclin D3, given as class symbol

Exercise: Fill in IC50 for record `C[C@@H](O)c1cc2cnc(Nc3ccc(CN4CCC[C@H](O)C4)cn3)nc2c(NC(C)(C)C)n1`
Solution: < 10 nM

Exercise: Look up and report measured IC50 for this entry: `CC(C)Nc1nc([C@@H](C)O)cc2cnc(Nc3ccc(CN4CC5CCC(C4)N5C)cn3)nc12`
Solution: < 10 nM

Exercise: Consider the compound `CO[C@H](C)c1cc2cnc(Nc3ccc(CN4CCN(CCC(=O)O)CC4)cn3)nc2c(NC(C)C)n1` . State its measured IC50.
Solution: 10 to 100 nM

Exercise: Give the reported value of IC50 for this record: `CC(C)Nc1nc([C@@H](C)O)cc2cnc(Nc3ccc(C(=O)N4CC[C@@H](N(C)C)C4)cn3)nc12`
Solution: < 10 nM

Exercise: Complete the entry with IC50 for CCCNc1nc([C@@H](C)O)cc2cnc(Nc3ccc(CN4CCN(C(C)CO)CC4)cn3)nc12 (single isomer, unassigned) [Compound 1207]
Solution: < 10 nM

Exercise: Quote IC50 reported for `CC(C)Nc1nc([C@@H](C)O)cc2cnc(Nc3ccc(N4CCN(CC(N)=O)CC4=O)cn3)nc12` please.
Solution: < 10 nM

Exercise: # return recorded IC50 for entry `CO[C@H](C)c1cc2cnc(Nc3ccc(N4CCN(CC(=O)O)CC4=O)cn3)nc2c(NC(C)C)n1`
Solution: 10 to 100 nM

Exercise: Query IC50 for `CNC(=O)CN1CCN(c2ccc(Nc3ncc4cc([C@@H](C)O)nc(NC(C)C)c4n3)nc2)C(=O)C1`
Solution: < 10 nM

Exercise: For the compound CCC(OC)c1cc2cnc(Nc3ccc(N4CCNCC4)nn3)nc2c(NC(C)C)n1 (stereo not drawn) [Compound 1069] , give its reported IC50.
Solution: 10 to 100 nM

Exercise: Quote IC50 reported for `CC1(c2cc3cnc(Nc4ccc5c(n4)CCNC5)nc3c(N[C@H]3CCCOC3)n2)COC1` please.
Solution: < 10 nM

Exercise: Consider the compound `CC(C)Nc1nc([C@@H](C)O)cc2cnc(Nc3ccc(N4CCC(CO)CC4)nn3)nc12` and give its recorded IC50.
Solution: < 10 nM

Exercise: Please look at this compound and report its IC50: `CC(C)Nc1nc([C@@H](C)O)cc2cnc(Nc3ccc(N4CCC(CC(=O)O)CC4)nn3)nc12`
Solution: 10 to 100 nM

Exercise: Give the measured IC50 for `CCNc1nc([C@@H](C)O)cc2cnc(Nc3ccc(CN4CCC(O)CC4)cn3)nc12`
Solution: < 10 nM

Exercise: Supply IC50 value. Item: `C[C@@H](O)c1cc2cnc(Nc3ccc(CN4CCC(CO)CC4)cn3)nc2c(NCC2CCOCC2)n1`
Solution: < 10 nM

Exercise: Fill in IC50 for record `CCCNc1nc(C(C)=O)cc2cnc(Nc3ccc(N4CCNCC4)cn3)nc12`
Solution: 10 to 100 nM

Exercise: Could you please provide reported IC50 for CCCNc1nc([C@@H](C)O)cc2cnc(Nc3ccc(CN4CCCC(O)C4)cn3)nc12 (stereo partly drawn) ? Thanks!
Solution: < 10 nM

Exercise: Output IC50 of `CCCCNc1nc(C(C)=O)cc2cnc(Nc3ccc(CN4CCNCC4)cn3)nc12`
Solution: < 10 nM

Exercise: Query IC50 for `CO[C@H](C)c1cc2cnc(Nc3ccc(CN4CCN(CCO)CC4)cn3)nc2c(N[C@H]2CC[C@H](O)CC2)n1`
Solution: < 10 nM

Exercise: Using the record for `CC(C)Nc1nc([C@@H](C)O)cc2cnc(Nc3ccc(N4CCN(CC(F)(F)F)CC4)nn3)nc12` , state its measured IC50.
Solution: < 10 nM

Exercise: // Input: `CCNc1nc([C@@H](C)O)c(Cl)c2cnc(Nc3ccc(CN4CCN(CCO)CC4)cn3)nc12` . Output its IC50 only.
Solution: < 10 nM

Exercise: Please report the measured IC50 for `CCCNc1nc([C@@H](C)O)cc2cnc(Nc3ccc(CN4CCN(CCO)C[C@H]4C)cn3)nc12`
Solution: < 10 nM

Exercise: Provide one value: measured IC50 of `CC(=O)N1CCN(c2ccc(Nc3ncc4cc([C@@H](C)O)nc(NC(C)C)c4n3)nn2)CC1`
Solution: < 10 nM

Exercise: Annotate the compound `COC[C@H](C)Nc1nc([C@@H](C)O)cc2cnc(Nc3ccc(N4CCNCC4=O)cn3)nc12` with its measured IC50.
Solution: 10 to 100 nM

Exercise: Please give measured IC50 of the following entry: `CC(C)Nc1nc([C@@H](C)O)cc2cnc(Nc3ccc(CC4CCNCC4)cn3)nc12`
Solution: < 10 nM

Exercise: Using the record for `CC(C)Nc1nc([C@@H](C)O)cc2cnc(Nc3ccc(N4CCN(C(=O)CO)CC4)nn3)nc12` , state its measured IC50.
Solution: < 10 nM

Exercise: Fill in reported IC50 for this entry: CC(C)Nc1nc([C@@H](C)O)cc2cnc(Nc3ccc(C4CNCCO4)nn3)nc12 (stereo partly drawn)
Solution: < 10 nM

Exercise: Supply IC50 value. Item: `CCNc1nc([C@@H](C)O)cc2cnc(Nc3ccc4c(n3)CCN(C(=O)CO)C4)nc12`
Solution: 10 to 100 nM

Exercise: For the compound `C[C@@H](O)c1cc2cnc(Nc3ccc(CN4CCC(CO)CC4)cn3)nc2c(NC2CCC2)n1` , give its reported IC50.
Solution: < 10 nM

Exercise: Give a short answer stating reported IC50 for CCC(OC)c1cc2cnc(Nc3ccc(CN4CCNCC4)cn3)nc2c(NC(C)C)n1 (stereo not drawn) [Compound 1066] .
Solution: 10 to 100 nM

Exercise: Consider the compound CCCNc1nc(C2CCOC2)cc2cnc(Nc3ccc4c(n3)CCNC4)nc12 (stereo not drawn) . State its measured IC50.
Solution: < 10 nM
